Tested on: Poa
TEST_DESCRIPTION: Pre-emergence test/Greenhouse, Poa
Assay type: in vivo
MEASUREMENT_CONTEXT: 250 g of ai./ha, after three weeks
MEASUREMENT_TYPE: degree of damage to the plants (% damage vs untreated control), Poa (%)
# value in %; strip the unit string

Prompt line: Entry CCOc1nn(C(=O)NS(=O)(=O)c2c(Cl)cccc2C(=O)OC)c(=O)n1C [Example 129] has what degree of damage to the plants (% damage vs untreated control), Poa?
Response line: 95

Prompt line: Entry CCOC(=O)c1cccc(C)c1S(=O)(=O)NC(=O)c1noc(C)n1 [Example 10] has what degree of damage to the plants (% damage vs untreated control), Poa?
Response line: 90

Prompt line: Entry CCOC(=O)c1cccc(Cl)c1S(=O)(=O)NC(=O)n1nc(SC)n(C)c1=O [Example 131] has what degree of damage to the plants (% damage vs untreated control), Poa?
Response line: 90

Prompt line: Entry COC(=O)c1cccc(Cl)c1S(=O)(=O)NC(=O)n1nc(SC)n(C)c1=O [Example 130] has what degree of damage to the plants (% damage vs untreated control), Poa?
Response line: 95

====

Assign degree of damage to the plants (% damage vs untreated control), Maize to each entry below.
System: Maize
TEST_DESCRIPTION: Pre-emergence test/Greenhouse, Maize
Type: in vivo
MEASUREMENT_CONTEXT: in vivo
# value in %; strip the unit string

Prompt line: Entry `CCOc1nn(C(=O)NS(=O)(=O)c2c(C)csc2C(=O)OC(C)C)c(=O)n1C1CC1` has what degree of damage to the plants (% damage vs untreated control), Maize?
Response line: 60

Prompt line: Entry `C=CCOc1nn(C(=O)NS(=O)(=O)c2c(C)cccc2C(=O)OC)c(=O)n1C` has what degree of damage to the plants (% damage vs untreated control), Maize?
Response line: 40

Prompt line: Entry `CCCOC(=O)c1cccc(C)c1S(=O)(=O)NC(=O)n1nc(OCC)n(CC)c1=O` has what degree of damage to the plants (% damage vs untreated control), Maize?
Response line: 10

Prompt line: Entry `COC(=O)c1scc(C)c1S(=O)(=O)NC(=O)n1nc(OC(C)C)n(C)c1=O` has what degree of damage to the plants (% damage vs untreated control), Maize?
Response line: 10

====

System: Matricaria
TEST_DESCRIPTION: Pre-emergence test/Greenhouse, Matricaria
Assay type: in vivo
MEASUREMENT_CONTEXT: 60 g of ai./ha, after three weeks
Assign degree of damage to the plants (% damage vs untreated control), Matricaria to each entry below.

Prompt line: Entry `COC(=O)c1cccc(C)c1S(=O)(=O)NC(=O)n1nc(OC)n(C)c1=O` has what degree of damage to the plants (% damage vs untreated control), Matricaria?
Response line: 95%

Prompt line: Entry `COCc1nn(C(=O)NS(=O)(=O)c2c(C)csc2C(=O)OC)c(=O)n1C1CC1` has what degree of damage to the plants (% damage vs untreated control), Matricaria?
Response line: 95%

Prompt line: Entry `CCSc1nn(C(=O)NS(=O)(=O)c2c(C)cccc2C(=O)OC)c(=O)n1OC` has what degree of damage to the plants (% damage vs untreated control), Matricaria?
Response line: 100%

Prompt line: Entry `CCn1c(OC)nn(C(=O)NS(=O)(=O)c2c(C)csc2C(=O)OC)c1=O` has what degree of damage to the plants (% damage vs untreated control), Matricaria?
Response line: 95%

Prompt line: Entry `CCSc1nn(C(=O)NS(=O)(=O)c2c(C)csc2C(=O)OC(C)C)c(=O)n1C` has what degree of damage to the plants (% damage vs untreated control), Matricaria?
Response line: 100%

Prompt line: Entry `CCOC(=O)c1scc(C)c1S(=O)(=O)NC(=O)n1nc(OC(C)C)n(C2CC2)c1=O` has what degree of damage to the plants (% damage vs untreated control), Matricaria?
Response line: 100%

Prompt line: Entry `CCCc1nn(C(=O)NS(=O)(=O)c2c(C)csc2C(=O)OC)c(=O)n1C` has what degree of damage to the plants (% damage vs untreated control), Matricaria?
Response line: 100%

Prompt line: Entry `COC(=O)c1cccc(C)c1S(=O)(=O)[N-]C(=O)n1nc(SC)n(C)c1=O.[Na+]` has what degree of damage to the plants (% damage vs untreated control), Matricaria?
Response line: 60%
